tested on: Huh7 cells expressing a subgenomic RNA replicon of Con1 (genotype 1b) sequence origin; test: microbe, parasite or virus in culture; details: Hepatitis C virus, Huh-7
Counter-ions that a name gives are not always drawn.
Value type: IC50 (µM)
Please give a number only; it is taken to be in µM.

Solved cases below.
| Molecule | IC50 [µM] |
| --- | --- |
| CO[C@H]1/C=C/O[C@@]2(C)Oc3c(C)c(O)c4c(c3C2=O)C2=NC3(CCN(CC(C)C)CC3)NC2=C(NC(=O)/C(C)=C\C=C\[C@H](C)[C@H](O)[C@@H](C)[C@@H](O)[C@@H](C)[C@H](OC(C)=O)[C@@H]1C)C4=O [Rifabutin, reference compound] | 17.2 |
| C/C=C/C/C=C/CCC(=O)[C@H]1O[C@H]1C(N)=O [Cerulenin, reference compound] | 16.2 |
| C[C@H]1[C@H](OC(=O)CCC(=O)O)O[C@@H]2O[C@@]3(C)CC[C@H]4[C@H](C)CC[C@@H]1[C@@]24OO3 [Artesunate, artesunate, reference compound] | 3.73 |
| CC(C)C(C(=O)OC(C#N)c1cccc(Oc2ccccc2)c1)c1ccc(Cl)cc1 (stereo not drawn) [Fenvalerate] | 18.9 |
| COCCCC/C(=N\OCCN)c1ccc(C(F)(F)F)cc1 [Fluvoxamine (e.g., maleate), Fluvoxamine, reference compound] | 23.8 |
| CN1CCCCC1CCN1c2ccccc2Sc2ccc([S+](C)[O-])cc21 (stereo not drawn) [Mesoridazine (e.g., Besylate), mesoridazine, reference compound] | 19 |
| CN1CCCC(n2nc(Cc3ccc(Cl)cc3)c3ccccc3c2=O)CC1 (stereo not drawn) [Azelastine, azelastine, reference compound] | 6.22 |
| O=c1[nH]c(=O)n([C@H]2C[C@H](O)[C@@H](CO)O2)cc1C(F)(F)F [Trifluridine, trifluridine, reference compound] | 0.38 |

Return reported IC50; argument: CCCCOc1ccc(CC(=O)NO)cc1 [Bufexamac, bufexamac, reference compound]
8.29

Please look up its IC50: CCCCC(CC)COC(=O)/C=C/c1ccc(OC)cc1 (stereo not drawn) [Octyl Methoxycinnamate, reference compound]
1.24

Every entry's value here was drawn from patent US20100009970A1.
